Measured values drawn from patent US20200369765A1 for this set.

- STUDY_SYSTEM: T1, Human Siglec-9 mutant M3 (human, UniProt Q9Y336 18-463)
- T1 construct: Expressed on HEK293T cells; also called Mutant 3
- T1 sequence (Q9Y336 other isoform, or with tags, fused parts or gaps mutant): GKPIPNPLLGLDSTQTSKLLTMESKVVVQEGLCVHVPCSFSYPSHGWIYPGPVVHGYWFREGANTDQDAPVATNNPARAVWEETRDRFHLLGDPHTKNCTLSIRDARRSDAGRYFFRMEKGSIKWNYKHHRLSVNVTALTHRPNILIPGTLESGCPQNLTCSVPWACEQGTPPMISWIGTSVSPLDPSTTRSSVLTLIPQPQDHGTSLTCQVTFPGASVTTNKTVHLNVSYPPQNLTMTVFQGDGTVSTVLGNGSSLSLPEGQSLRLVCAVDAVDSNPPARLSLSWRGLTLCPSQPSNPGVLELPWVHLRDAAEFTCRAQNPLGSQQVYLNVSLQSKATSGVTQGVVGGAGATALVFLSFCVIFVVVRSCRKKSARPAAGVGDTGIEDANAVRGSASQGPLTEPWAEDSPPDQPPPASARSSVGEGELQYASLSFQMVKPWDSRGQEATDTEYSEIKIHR
- METHOD_NOTES: flow cytometry, HEK293T transfectants
MEASURED_QUANTITY: binding result

Query binding result for mAb2 (antibody, human IgG1, V domains shown) VH: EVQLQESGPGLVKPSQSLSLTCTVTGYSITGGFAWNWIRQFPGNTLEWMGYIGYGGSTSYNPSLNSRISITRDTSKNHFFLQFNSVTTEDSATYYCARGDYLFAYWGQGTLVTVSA VL: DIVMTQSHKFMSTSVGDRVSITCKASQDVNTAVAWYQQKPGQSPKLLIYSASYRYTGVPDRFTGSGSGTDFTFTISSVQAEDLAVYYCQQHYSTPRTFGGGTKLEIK binds
